Source of measurements: patent US6479435B1

Tested on: ivyleaf morningglory (Ipomoea hederacea, IPOHE)
Experiment: Post-emerge greenhouse herbicide test, phytotoxicity rating
Format: in vivo
Conditions: Ipomoea, post-emergence, 336 h, rate 500 g ai/ha, 14 days after application, scale 0-100
Description: A standard greenhouse herbicide activity screening system was used to evaluate the herbicidal efficacy and crop safety of these test compounds. […] At 14 days after application of the test materials, phytotoxicity ratings were recorded. […]
Catalogue of pest or weed control at 500 g/ha values
Reported property: pest or weed control at 500 g/ha

> print(dat)
                         structure.notation                              assay.target                 reported.property  endpoint.value
1  N#Cc1ccc(Oc2cc(-n3c(=O)cc(C(F)(F)F)n(N)c3=O)c(F)cc2Cl)nc1  ivyleaf morningglory (Ipomoea hederacea, IPOHE)  pest or weed control at 500 g/ha            100%
2  Nn1c(C(F)(F)F)cc(=O)n(-c2cc(Oc3ccccc3C(F)(F)F)c(Cl)cc2F)c1=O  ivyleaf morningglory (Ipomoea hederacea, IPOHE)  pest or weed control at 500 g/ha            100%
3  Nn1c(C(F)(F)F)cc(=O)n(-c2cc(Oc3ccccc3)c(Cl)cc2F)c1=O  ivyleaf morningglory (Ipomoea hederacea, IPOHE)  pest or weed control at 500 g/ha            100%
4  Nn1c(C(F)(F)F)cc(=O)n(-c2cc(Oc3ccccc3[N+](=O)[O-])c(Cl)cc2F)c1=O  ivyleaf morningglory (Ipomoea hederacea, IPOHE)  pest or weed control at 500 g/ha            100%
5  Nn1c(C(F)(F)F)cc(=O)n(-c2cc(Oc3ccc([N+](=O)[O-])cc3C(F)(F)F)c(Cl)cc2F)c1=O  ivyleaf morningglory (Ipomoea hederacea, IPOHE)  pest or weed control at 500 g/ha            100%
6  Nn1c(C(F)(F)F)cc(=O)n(-c2cc(Oc3cccc(Cl)n3)c(Cl)cc2F)c1=O  ivyleaf morningglory (Ipomoea hederacea, IPOHE)  pest or weed control at 500 g/ha             90%
7  Nn1c(C(F)(F)F)cc(=O)n(-c2cc(Oc3cc([N+](=O)[O-])cc(C(F)(F)F)c3)c(Cl)cc2F)c1=O  ivyleaf morningglory (Ipomoea hederacea, IPOHE)  pest or weed control at 500 g/ha             75%

---

Test system: soybean (Glycine max L., var. Pella 86, SOY)
Experiment: Post-emerge greenhouse test, crop damage rating
Format: in vivo
Parameters: key: 0-100 scale: 0 = no damage, 100 = complete death of all plants
Conditions: rate 63 g ai/ha, 14 days after application, scale 0-100
Measured crop damage rating SOY accompanies every entry in the list below.
Reported property: crop damage rating SOY

> print(dat)
                                    compound  endpoint.value
 1  Nn1c(C(F)(F)F)cc(=O)n(-c2cc(Oc3cccc(F)n3)c(Cl)cc2F)c1=O [Compound 9-4]              95
 2  CSc1cccnc1Oc1cc(-n2c(=O)n3n(c2=S)CCCC3)c(F)cc1Cl [Compound 8-43]              80
 3  O=c1n(-c2cc(Oc3cccc(F)n3)c(Cl)cc2F)c(=S)n2n1CCCC2 [Compound 8-25]              70
 4  Nc1cccnc1Oc1cc(-n2c(=O)n3n(c2=S)CCCC3)c(F)cc1Cl [Compound 8-42]              20
 5  Nc1ccc(Oc2cc(-n3c(=O)n4n(c3=S)CCCC4)c(F)cc2Cl)nc1 [Compound 8-24]               0
 6  CCOC(=O)C(C)Oc1ccc(Oc2cc(-n3c(=O)n4n(c3=S)CCCC4)c(F)cc2Cl)c(N)c1 (stereo not shown) [Compound 8-40]              80
 7  COc1cc(OC)nc(Oc2cc(-n3c(=O)n4n(c3=S)CCCC4)c(F)cc2Cl)n1 [Compound 8-33]              55
 8  O=c1n(-c2cc(Oc3ncccc3[N+](=O)[O-])c(Cl)cc2F)c(=S)n2n1CCCC2 [Compound 8-19]              65
 9  CCOC(=O)C(C)Oc1ccc(Oc2cc(-n3c(=O)n4n(c3=O)CCCC4)c(F)cc2Cl)c([N+](=O)[O-])c1 (stereo not shown) [Compound 8-41]              30
10  N#Cc1ccc(Oc2cc(-n3c(=O)n4n(c3=S)CCCC4)c(F)cc2Cl)nc1 [Compound 8-22]              65
11  COc1cc(Oc2cc(-n3c(=O)n4n(c3=S)CCCC4)c(F)cc2Cl)nc(OC)n1 [Compound 8-32]              30
12  O=c1n(-c2cc(Oc3nc(Cl)ccc3C(F)(F)F)c(Cl)cc2F)c(=S)n2n1CCCC2 [Compound 8-27]              70
13  O=c1n(-c2cc(Oc3ccc([N+](=O)[O-])cn3)c(Cl)cc2F)c(=S)n2n1CCCC2 [Compound 8-23]              25
14  O=c1n(-c2cc(Oc3ccccn3)c(Cl)cc2F)c(=S)n2n1CCCC2 [Compound 8-17]              90
15  Nn1c(C(F)(F)F)cc(=O)n(-c2cc(Oc3cccc(C(F)(F)F)c3)c(Cl)cc2F)c1=O [Compound 9-25]              60
16  CC(C)S(=O)(=O)c1cccnc1Oc1cc(-n2c(=O)n3n(c2=S)CCCC3)c(F)cc1Cl [Compound 8-37]              90
17  N#Cc1cccnc1Oc1cc(-n2c(=O)n3n(c2=S)CCCC3)c(F)cc1Cl [Compound 8-20]              90
18  O=c1n(-c2cc(Oc3nc(F)c(F)cc3F)c(Cl)cc2F)c(=S)n2n1CCCC2 [Compound 8-28]              50
19  O=c1n(-c2cc(Oc3ncc([N+](=O)[O-])s3)c(Cl)cc2F)c(=S)n2n1CCCC2 [Compound 8-36]              30
